These entries and their values trace back to patent US20160145343A1.

# Study Target: T1, 100 aa-long synthetic MUC1 peptide (…)5
# T1 construct: also called 100-mer; vaccine 100-mer peptide
# Procedure Details: ELISA titration on coated 100-mer peptide, EC50 approximated
Each entry below carries its reported EC50.

{"Binder": "M22 (antibody, human IgG1, kappa, V domains shown, Human IgG) VH: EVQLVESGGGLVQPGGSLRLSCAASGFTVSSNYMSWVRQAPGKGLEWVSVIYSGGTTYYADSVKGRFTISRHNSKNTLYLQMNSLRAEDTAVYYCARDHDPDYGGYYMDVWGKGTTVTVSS VL: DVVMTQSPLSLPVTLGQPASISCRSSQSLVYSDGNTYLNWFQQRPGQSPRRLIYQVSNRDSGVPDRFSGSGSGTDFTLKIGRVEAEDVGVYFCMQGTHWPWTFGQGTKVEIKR", "EC50 (ng/mL)": 7}
{"Binder": "M20 (antibody, human IgG1, kappa, V domains shown, Human IgG) VH: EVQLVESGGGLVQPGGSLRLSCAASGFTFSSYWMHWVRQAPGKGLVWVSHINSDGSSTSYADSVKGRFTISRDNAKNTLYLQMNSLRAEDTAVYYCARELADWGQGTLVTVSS VL: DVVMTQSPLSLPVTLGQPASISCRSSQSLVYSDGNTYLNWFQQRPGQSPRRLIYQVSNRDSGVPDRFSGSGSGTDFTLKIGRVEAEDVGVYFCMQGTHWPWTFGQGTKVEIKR", "EC50 (ng/mL)": 4}
{"Binder": "M21 (antibody, human IgG1, kappa, V domains shown, Human IgG) VH: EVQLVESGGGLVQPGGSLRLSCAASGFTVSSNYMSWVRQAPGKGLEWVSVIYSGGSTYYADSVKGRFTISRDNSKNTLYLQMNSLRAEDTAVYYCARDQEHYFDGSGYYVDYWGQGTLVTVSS VL: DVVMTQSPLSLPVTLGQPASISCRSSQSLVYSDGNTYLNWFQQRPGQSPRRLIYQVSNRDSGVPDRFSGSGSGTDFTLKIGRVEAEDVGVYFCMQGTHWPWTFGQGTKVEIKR", "EC50 (ng/mL)": 11}
